Sourced from patent US20030166571A1

# tested target: human ORL-1 receptor (opioid receptor like 1) (human, UniProt P41146 1-370)
# Sequence (P41146 whole entry): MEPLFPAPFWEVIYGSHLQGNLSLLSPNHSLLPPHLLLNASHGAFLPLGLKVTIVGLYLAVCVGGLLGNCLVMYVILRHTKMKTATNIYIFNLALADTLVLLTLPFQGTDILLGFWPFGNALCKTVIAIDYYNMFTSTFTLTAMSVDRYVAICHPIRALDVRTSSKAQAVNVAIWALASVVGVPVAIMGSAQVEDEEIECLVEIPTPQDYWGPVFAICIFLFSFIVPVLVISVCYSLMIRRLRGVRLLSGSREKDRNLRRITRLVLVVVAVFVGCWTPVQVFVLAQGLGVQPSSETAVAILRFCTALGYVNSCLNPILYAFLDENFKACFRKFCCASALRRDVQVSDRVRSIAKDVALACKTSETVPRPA
# assay details: cell-based or functional assay
Square brackets hold non-standard residues; d marks the D form. Phe(4-CN) = N#Cc1ccc(C[C@H](N)C(=O)O)cc1
endpoint name: % Stimulation of [35S]GTPγS binding (%)

• {β‑aminoisobutryl}-RYYRWR-NH2 (also called β-aminoisobutryl-Arg-Tyr-Tyr-Arg-Trp-Arg-NH2) [VII-3-A] = 29.1
• Ac-R[Phe(4-CN)]YRWR-NH2 (SMILES CC(=O)N[C@@H](CCCNC(=N)N)C(=O)N[C@@H](Cc1ccc(C#N)cc1)C(=O)N[C@@H](Cc1ccc(O)cc1)C(=O)N[C@@H](CCCNC(=N)N)C(=O)N[C@@H](Cc1c[nH]c2ccccc12)C(=O)N[C@@H](CCCNC(=N)N)C(N)=O, also called Ac-Arg-Phe(4-CN)-Tyr-Arg-Trp-Arg-NH2) [VII-43-C] = 49.7
